- MEASURED TARGET: RBP1; note: reference of the scale not given here
- TEST DETAILS: pooled miR-30 sensor sort-seq; sequence = guide strand
- EXPERIMENTAL SETUP: shRNA
MEASUREMENT NAME: sensor-assay potency score (higher = more potent)
One number for each entry.

Illustrative cases are given below, each with its answer.
1) AAGTCCATGATGTAGTTCCTAA: -0.968
2) TCGTTGACCAACATCTTCCAGT: -0.239
3) ACTGTTGTCATGCACTTGCGGT: -1.01
4) ATTCTCGTTGACCAACATCTTC: -0.954
5) TTCCTAAAAGTGCTCAGCGTGC: -1.04
6) TTGACCAACATCTTCCAGTACC: -0.856
7) TACTCCTCGAAATTCTCGTTGA: -0.0394

Now examine the next entry.
Q: Query sensor-assay potency score (higher = more potent) for `TTCTCGTTGACCAACATCTTCC`
Ans: -0.467
